tested on: Escherichia coli TOP10; assay: shrunken log2 fold change of peptide-encoding DNA abundance (4.5 h post-induction vs induction); higher = less antimicrobial activity (less host growth inhibition); conditions: time post-induction: 4.5 h; library: site-saturation at positions 5, 18, 19, 20
Below, each entry is listed with its recorded shrunken log2 fold change.

| Sequence Data | shrunken log2 fold change |
| --- | --- |
| RRIRGRPPRLPRPRPRPNIKPRP | 0.136 |
| RRIRDRPPRLPRPRPRPHLRPRP | -0.00431 |
| RRIRCRPPRLPRPRPRPLDEPRP | 0.151 |
| RRIRIRPPRLPRPRPRPVVAPRP | -0.0606 |
| RRIRRRPPRLPRPRPRPELQPRP | 0.212 |
| RRIRWRPPRLPRPRPRPTDDPRP | -0.0402 |
| RRIRKRPPRLPRPRPRPCNKPRP | 0.0197 |
| RRIRWRPPRLPRPRPRPFWMPRP | -0.235 |
| RRIRPRPPRLPRPRPRPHYDPRP | -0.459 |
| RRIRPRPPRLPRPRPRPRSWPRP | 0.533 |
| RRIRLRPPRLPRPRPRPVHDPRP | -0.458 |
| RRIRYRPPRLPRPRPRPRMWPRP | 0.0356 |
| RRIRDRPPRLPRPRPRPQQYPRP | -0.473 |
| RRIRIRPPRLPRPRPRPPPCPRP | 0.0616 |
| RRIRMRPPRLPRPRPRPQIEPRP | 0.277 |
| RRIRMRPPRLPRPRPRPTGDPRP | 1.3 |
| RRIRARPPRLPRPRPRPLKYPRP | -0.11 |
| RRIRQRPPRLPRPRPRPANWPRP | 0.431 |
| RRIRFRPPRLPRPRPRPRFMPRP | -0.117 |
| RRIRERPPRLPRPRPRPKLRPRP | -0.0804 |
| RRIRPRPPRLPRPRPRPTYQPRP | -0.0514 |
| RRIRWRPPRLPRPRPRPGLYPRP | -0.036 |
| RRIRERPPRLPRPRPRPHWRPRP | 0.198 |
| RRIRERPPRLPRPRPRPQFCPRP | -0.0627 |
| RRIRIRPPRLPRPRPRPTKTPRP | 0.12 |
| RRIRTRPPRLPRPRPRPEEVPRP | -0.0075 |

###

shrunken log2 fold change values for the sequences below.
system: Escherichia coli TOP10; assay: shrunken log2 fold change of peptide-encoding DNA abundance (4.5 h post-induction vs induction); higher = less antimicrobial activity (less host growth inhibition); settings: time post-induction: 4.5 h; library: site-saturation at positions 5, 18, 19, 20

| Sequence Data | shrunken log2 fold change |
| --- | --- |
| RRIRQRPPRLPRPRPRPCYGPRP | -0.0796 |
| RRIRERPPRLPRPRPRPLFCPRP | -0.211 |
| RRIRHRPPRLPRPRPRPVWKPRP | -0.00992 |
| RRIRTRPPRLPRPRPRPEGKPRP | 0.0733 |
| RRIRKRPPRLPRPRPRPKGMPRP | -0.00227 |
| RRIRARPPRLPRPRPRPGVFPRP | 0.502 |
| RRIRFRPPRLPRPRPRPSKPPRP | -0.0327 |
| RRIRVRPPRLPRPRPRPYCSPRP | -0.0744 |
| RRIRWRPPRLPRPRPRPKCRPRP | 0.294 |
| RRIRERPPRLPRPRPRPCIPPRP | -0.109 |
| RRIRYRPPRLPRPRPRPYPSPRP | -0.248 |
| RRIRVRPPRLPRPRPRPCAHPRP | -0.0704 |
| RRIRCRPPRLPRPRPRPFATPRP | 0.287 |
| RRIRDRPPRLPRPRPRPGHPPRP | 0.813 |
| RRIRKRPPRLPRPRPRPMLCPRP | -0.0829 |
| RRIRSRPPRLPRPRPRPFITPRP | -0.798 |
| RRIRLRPPRLPRPRPRPCGCPRP | 0.282 |
| RRIRSRPPRLPRPRPRPPVAPRP | 0.403 |
| RRIRERPPRLPRPRPRPPFNPRP | -0.275 |
| RRIRDRPPRLPRPRPRPLAYPRP | 0.0112 |
| RRIRYRPPRLPRPRPRPVICPRP | -0.0887 |
| RRIRARPPRLPRPRPRPPEDPRP | 0.308 |
| RRIRIRPPRLPRPRPRPLGTPRP | -0.356 |
| RRIRFRPPRLPRPRPRPSSEPRP | -0.134 |
| RRIRFRPPRLPRPRPRPKQSPRP | 0.328 |
| RRIRYRPPRLPRPRPRPTIYPRP | -0.939 |
| RRIRMRPPRLPRPRPRPICPPRP | -0.123 |
| RRIRARPPRLPRPRPRPQSDPRP | 0.0175 |
| RRIRWRPPRLPRPRPRPYDPPRP | -0.126 |
| RRIRMRPPRLPRPRPRPVTPPRP | 0.614 |
| RRIRVRPPRLPRPRPRPMKVPRP | -0.194 |
| RRIRPRPPRLPRPRPRPDMAPRP | -0.119 |
| RRIRARPPRLPRPRPRPNSIPRP | -0.125 |
| RRIRPRPPRLPRPRPRPLMAPRP | 0.213 |
| RRIRNRPPRLPRPRPRPPTNPRP | 0.151 |
| RRIRSRPPRLPRPRPRPRFAPRP | 0.24 |
| RRIRFRPPRLPRPRPRPHSYPRP | -0.0495 |
| RRIRIRPPRLPRPRPRPHLIPRP | -0.245 |
| RRIRDRPPRLPRPRPRPNFGPRP | 0.0243 |
| RRIRQRPPRLPRPRPRPKVEPRP | -0.00957 |
| RRIRERPPRLPRPRPRPCCRPRP | 0.0107 |
| RRIRARPPRLPRPRPRPAIAPRP | 0.547 |
| RRIRLRPPRLPRPRPRPWLLPRP | -0.172 |
| RRIRVRPPRLPRPRPRPRHWPRP | 0.293 |
| RRIRTRPPRLPRPRPRPIVGPRP | -0.0587 |
| RRIRTRPPRLPRPRPRPTGGPRP | 0.164 |
| RRIRLRPPRLPRPRPRPCWEPRP | -0.197 |
| RRIRRRPPRLPRPRPRPQQLPRP | -0.0976 |
| RRIRFRPPRLPRPRPRPENAPRP | 0.402 |

###

system: Escherichia coli TOP10; assay: shrunken log2 fold change of peptide-encoding DNA abundance (4.5 h post-induction vs induction); higher = less antimicrobial activity (less host growth inhibition); conditions: time post-induction: 4.5 h; library: site-saturation at positions 5, 18, 19, 20;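 further: peptides expressed intracellularly from a pBAD plasmid library in pooled LB shake-flask culture, induced with 0.3% L-arabinose, DNA abundance read by NGS, three biological replicates, DESeq2 with apeglm shrinkage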
Entry flag: Yes if shrunken log2 fold change reaches 0.01; No if it does not.

| Sequence Data | Classification |
| --- | --- |
| RRIRARPPRLPRPRPRPWWNPRP | No |
| RRIRMRPPRLPRPRPRPYYSPRP | No |
| RRIRLRPPRLPRPRPRPFLWPRP | No |
| RRIRNRPPRLPRPRPRPDWTPRP | No |
| RRIRNRPPRLPRPRPRPYFSPRP | No |
| RRIRGRPPRLPRPRPRPVHVPRP | Yes |
| RRIRQRPPRLPRPRPRPWQMPRP | No |
| RRIRTRPPRLPRPRPRPHEAPRP | No |
| RRIRRRPPRLPRPRPRPPMTPRP | Yes |
| RRIRSRPPRLPRPRPRPFDFPRP | No |
| RRIRFRPPRLPRPRPRPAINPRP | No |
| RRIRARPPRLPRPRPRPFTCPRP | Yes |
| RRIRFRPPRLPRPRPRPLCDPRP | No |
| RRIRPRPPRLPRPRPRPSFSPRP | No |
| RRIRNRPPRLPRPRPRPNQVPRP | No |
| RRIRQRPPRLPRPRPRPCEHPRP | Yes |
| RRIRLRPPRLPRPRPRPNKIPRP | No |
| RRIRLRPPRLPRPRPRPRNYPRP | No |
| RRIRLRPPRLPRPRPRPGAPPRP | Yes |
| RRIRARPPRLPRPRPRPDFRPRP | Yes |
| RRIRMRPPRLPRPRPRPVCEPRP | Yes |
| RRIRVRPPRLPRPRPRPLKIPRP | No |
| RRIRSRPPRLPRPRPRPIYDPRP | Yes |
| RRIRYRPPRLPRPRPRPMCHPRP | No |
| RRIRLRPPRLPRPRPRPRNHPRP | No |
| RRIRNRPPRLPRPRPRPYIIPRP | No |
| RRIRRRPPRLPRPRPRPCSFPRP | No |
| RRIRFRPPRLPRPRPRPREDPRP | Yes |
| RRIRWRPPRLPRPRPRPPECPRP | No |
| RRIRSRPPRLPRPRPRPTNHPRP | No |
| RRIRWRPPRLPRPRPRPTKFPRP | Yes |
